assay: yeast display, Sf9 membrane polyspecificity reagent, FACS + sequencing; frameworks hold sequencing errors
result_type: polyreactivity (PSR sort gate)

QVQLVDSGGGLVQAGGSLRLSCAASGRTIPYYAMGWYRQAPGKERELVAAISSSGGRTYYADSVKGRFTISRDNAKNTVYLQMNSLKPEDTAVYYCNVDAWYPYQGFLVGYYYWGQGTQVTVSS low polyreactivity
QVQLVESGGGLVQAGGSLRLSCAASGSTFWFYPMGRYRQAPGKERELVAVISNSGSTYYADSVKGRFTISRDNAKNTVYLQMNSLKPEDTAVYYCNKDGGGDSYWYDYWGQGTQVTVSS low polyreactivity
QVQLVESGGGFVQAGGTLRLSCAASGFTFGYNAMGWYRHAPGKERELVAAISFSDGITYYADSVKRRFTISRDNAKNNVYLQMNSLKPEDTAVYYCAADLYFEYEYWGQGTQVTVSS high polyreactivity
QVQLVESGGGLVQAGGSLRLSCAASGRIFRPYVMGWYRQAPGKERELVAAISYRGSSTYYADSVKGRFTISRDNAKNTVYLQMNSLKPEDTAVYYCAAYPRVYWTKEYDYWGQGTQVTVSS high polyreactivity
QVQLVESGGGLVQAGGSLRLSCAASGSTIYPYAMGWYRQAPGKERELVAAISSGGRTYYADSVKGRFTISRDNAKNTVYLQMNSLKPEDTAVYYCAARVTKKYRRTYDYWGQGTQVTVSS high polyreactivity

Quick one: polyreactivity (PSR sort gate) of "QVQLVESGGGLVQAGGSLRLSCAASGITIVWYAMGWYRLAPGKEREFVASISWRGGTTYYADSVKGRFTISRDNAKNTVDLQMNSLKPEDTAVYYCAARTRWWYRYDYWGQGTQVTVSS" ?
high polyreactivity

I am curious: what polyreactivity (PSR sort gate) value has been reported for "QVQLVESGGGLVQAGGSLRLSCAASGATFGYYAMGWYRQAPGKEMEFVARITQRGSRTYYADSVKGRFTISRDNAKNTVYLQMNSLKPEDTAVYYCDAEVWWTHNGRGAYGYDYWGQGTHVTVSS" ?
high polyreactivity

Dear colleague, I am looking for the recorded polyreactivity (PSR sort gate) of the following sequence: "QVQLQESGGGLVQAGGSLRLGCAASGNISDAGYMGWYRQAPGKEREFVAAIAAGSNTNYADSVKGRFTISRDNAKNTVYLQMNSLKPEDTAVFYCAVGSYARVQYEYWGQGTQVTVNS"
low polyreactivity

Could you tell me which polyreactivity (PSR sort gate) is on file for "QVQLVESGGGLVQAGGSLRLSCDASGSIFPHNAMGWYRQAPGKERELVAAISVSGGSKYYADSVKGRFTISRDNAKNTVYLQMNSLKPEDTAVYYCAAYAYGGRINGYRTYRYNYWGQGTQVTVSS" ?
high polyreactivity

Consider the sequence shown here: "QVQLVESGGGLVQAGGSLRLSCAASGFIFIYNVMGWYRPAPGKERELVAAINRGGSTKYADSVKGRFTISRDNAKNTVYLQMNSLKPEDTAVYYCAARYDGSRYHYDGYDYWGQGTQVTVSS" What is its recorded polyreactivity (PSR sort gate)?
low polyreactivity

* * *

test: yeast display, Sf9 membrane polyspecificity reagent, FACS + sequencing; frameworks hold sequencing errors
result_type: polyreactivity (PSR sort gate)

Answered cases to consult:
QDQLVESGGGLVQAGGSLRISCAASGFTFDENAMGWYRQAPGINYSGASTYYADSVKGRFTISRDNAKNTVYLQMYSLKPEDTAVYYCAAEVVALMNYWGQGSQVTVSS low polyreactivity
QVQLVESGGGLVQAGCSLRLSWAASGFTFAYYAMGWSRQAPGKERDLVASITSSGGSTYYADSVKGRFTISRDNAKNTVYLQMNSLKPEDTAVYYCNKAYRGVYYGYEYWGQGTQVTVSS high polyreactivity
QVQLVESGGGLVQAGGSLRLSCAASGFIFQWYAMGWYRQAPGKERELVAAISIGDSTYYADSVKGRFTISRDNAKNTVYLQMNSLKPEDTAVYYCNSDPWGYYCVIPLYEYDYWGQGTQVTVSS low polyreactivity
QVKLKESVGGLVQAGGSLRLSCAASGSISATGNMGWYRQAPGEERELVAAINFGSNTYYADSVKGRFTISRDNAKNTVYLQKSGLKPEDTAVYYCAVDGWYVGPYYYWGQGTQVTVSS high polyreactivity
QVQLVESGGGLVQAGGSLRLSCAASGSTFGYYAMGWYRQAPGQERELVAAITSGGSTKYADSVKGRFTISRDNAKNTVYLQLISLKPEDNAVYYCATSRYFGYGYWGQGTQVTVSS low polyreactivity

Please find the next sequence below.
Consider the sequence shown here: "QVQLEESGGGIVQAGGSLRLSCAASGRTCSNYAMGWNRQAPGKERQLVASIRSSGTSTYYADSVKGRFTISRDIAKNTVYLKMNSLKPEDTAVYYCAKRYFTWSSTYNYWGQGTQVTVSS" What is its recorded polyreactivity (PSR sort gate)?
high polyreactivity
